Biological target: HIV-1 JR-CSF Env R304A (HIV-1 JR-CSF) (UniProt P20871)
Experiment: cell-based or functional assay
Examples of binders with documented Fold IC50 increase relative to wild-type follow.

binder	Fold IC50 increase relative to wild-type (fold)
PGT-130 (antibody, V domains shown) VH: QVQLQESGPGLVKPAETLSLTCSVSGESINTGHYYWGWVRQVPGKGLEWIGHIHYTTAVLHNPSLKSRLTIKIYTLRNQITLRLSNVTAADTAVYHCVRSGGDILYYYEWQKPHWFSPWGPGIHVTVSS VL: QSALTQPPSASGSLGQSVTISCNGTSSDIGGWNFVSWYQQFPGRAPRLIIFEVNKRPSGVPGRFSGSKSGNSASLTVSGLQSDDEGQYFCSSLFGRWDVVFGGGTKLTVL	2.5
PGT-126 (antibody, V domains shown) VH: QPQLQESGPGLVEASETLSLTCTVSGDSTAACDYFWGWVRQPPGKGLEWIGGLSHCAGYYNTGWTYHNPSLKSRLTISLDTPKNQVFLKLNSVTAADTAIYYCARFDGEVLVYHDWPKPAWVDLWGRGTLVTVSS VL: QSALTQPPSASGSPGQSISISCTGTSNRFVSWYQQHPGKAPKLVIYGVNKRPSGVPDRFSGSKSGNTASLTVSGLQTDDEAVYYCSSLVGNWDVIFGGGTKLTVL	1.8
PGT-123 (antibody, V domains shown) VH: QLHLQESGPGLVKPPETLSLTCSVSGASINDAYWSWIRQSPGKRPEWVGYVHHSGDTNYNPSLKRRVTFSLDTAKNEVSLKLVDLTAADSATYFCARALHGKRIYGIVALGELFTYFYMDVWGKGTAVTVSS VL: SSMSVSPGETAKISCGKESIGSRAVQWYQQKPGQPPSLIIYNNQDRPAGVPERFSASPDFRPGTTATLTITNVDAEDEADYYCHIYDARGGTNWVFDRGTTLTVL	0.7
